# half-life annotations
# Test protocol: hydrolysis of the amidine group to lactam in formulation buffer
# Assay type: physicochemical
# Conditions: formulation buffer pH 6, 22° C.; read-out: t ½ in formulation buffer (pH 6) at 22° C. (converted)

# Compound, half-life
data = [
    ("CCCN(OCC)C(=O)C1=Cc2cnc(S(=O)(=O)NCCOC)cc2N=C(N)C1 [azaBz-7]", "100 days"),
    ("CCCN(OCC)C(=O)C1=Cc2cnc(-c3cnc(CN)nc3)cc2N=C(N)C1 [azaBz-6]", "30 days"),
    ("CCCN(OCCNC(=O)OC(C)(C)C)C(=O)C1=Cc2cnc(S(=O)(=O)O)cc2N=C(N)C1 [azaBz-5]", "50 days"),
    ("CCCN(OCC)C(=O)C1=Cc2cnc(S(=O)(=O)N(C)CCOC)cc2N=C(N)C1 [azaBz-8]", "40 days"),
    ("CCCN(OCCNC(=O)OC(C)(C)C)C(=O)C1=Cc2cnc(C(=O)O)cc2N=C(N)C1 [azaBz-3]", "30 days"),
]

Where do the numbers come from? From patent US20260232823A1.
